Data origin: patent US20080044360A1

- Tested System: T1, human collagen type I, acid soluble, extracted from placenta (Sigma C7774) (human, UniProt P02452 162-1218; P08123 80-1119)
- T1 construct: tissue extract, gelled and dried in wells; also called dried human collagen; h-Collagen
- T1 sequence (P02452 162-1218 limits assumed, chain 1 of 2): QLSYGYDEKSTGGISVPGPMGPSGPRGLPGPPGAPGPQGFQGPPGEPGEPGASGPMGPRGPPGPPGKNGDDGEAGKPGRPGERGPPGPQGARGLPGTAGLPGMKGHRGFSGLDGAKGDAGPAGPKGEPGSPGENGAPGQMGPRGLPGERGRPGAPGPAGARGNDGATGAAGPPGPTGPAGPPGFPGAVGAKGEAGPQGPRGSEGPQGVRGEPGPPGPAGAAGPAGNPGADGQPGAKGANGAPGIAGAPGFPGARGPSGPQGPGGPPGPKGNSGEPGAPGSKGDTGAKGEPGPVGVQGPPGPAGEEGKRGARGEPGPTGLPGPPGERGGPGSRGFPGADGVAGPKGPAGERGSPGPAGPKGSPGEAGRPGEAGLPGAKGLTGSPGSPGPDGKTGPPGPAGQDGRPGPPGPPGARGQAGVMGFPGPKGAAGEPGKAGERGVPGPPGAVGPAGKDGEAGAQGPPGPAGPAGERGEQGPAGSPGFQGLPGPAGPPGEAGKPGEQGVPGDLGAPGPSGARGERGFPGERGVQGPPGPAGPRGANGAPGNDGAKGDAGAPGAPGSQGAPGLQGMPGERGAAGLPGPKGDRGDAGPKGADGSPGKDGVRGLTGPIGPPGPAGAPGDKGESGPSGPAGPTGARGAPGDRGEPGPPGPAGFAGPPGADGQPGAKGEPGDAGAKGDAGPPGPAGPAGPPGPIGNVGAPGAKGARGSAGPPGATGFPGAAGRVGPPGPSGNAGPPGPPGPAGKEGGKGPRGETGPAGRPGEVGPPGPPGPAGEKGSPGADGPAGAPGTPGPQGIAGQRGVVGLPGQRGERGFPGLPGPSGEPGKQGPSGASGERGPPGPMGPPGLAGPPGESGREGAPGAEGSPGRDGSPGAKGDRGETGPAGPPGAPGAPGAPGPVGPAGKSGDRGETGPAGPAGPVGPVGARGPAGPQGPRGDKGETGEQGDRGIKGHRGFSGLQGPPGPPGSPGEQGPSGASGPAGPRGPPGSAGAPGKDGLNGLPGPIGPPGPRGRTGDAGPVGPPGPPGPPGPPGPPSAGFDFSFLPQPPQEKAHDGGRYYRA
- T1 sequence (P08123 80-1119 limits assumed, chain 2 of 2): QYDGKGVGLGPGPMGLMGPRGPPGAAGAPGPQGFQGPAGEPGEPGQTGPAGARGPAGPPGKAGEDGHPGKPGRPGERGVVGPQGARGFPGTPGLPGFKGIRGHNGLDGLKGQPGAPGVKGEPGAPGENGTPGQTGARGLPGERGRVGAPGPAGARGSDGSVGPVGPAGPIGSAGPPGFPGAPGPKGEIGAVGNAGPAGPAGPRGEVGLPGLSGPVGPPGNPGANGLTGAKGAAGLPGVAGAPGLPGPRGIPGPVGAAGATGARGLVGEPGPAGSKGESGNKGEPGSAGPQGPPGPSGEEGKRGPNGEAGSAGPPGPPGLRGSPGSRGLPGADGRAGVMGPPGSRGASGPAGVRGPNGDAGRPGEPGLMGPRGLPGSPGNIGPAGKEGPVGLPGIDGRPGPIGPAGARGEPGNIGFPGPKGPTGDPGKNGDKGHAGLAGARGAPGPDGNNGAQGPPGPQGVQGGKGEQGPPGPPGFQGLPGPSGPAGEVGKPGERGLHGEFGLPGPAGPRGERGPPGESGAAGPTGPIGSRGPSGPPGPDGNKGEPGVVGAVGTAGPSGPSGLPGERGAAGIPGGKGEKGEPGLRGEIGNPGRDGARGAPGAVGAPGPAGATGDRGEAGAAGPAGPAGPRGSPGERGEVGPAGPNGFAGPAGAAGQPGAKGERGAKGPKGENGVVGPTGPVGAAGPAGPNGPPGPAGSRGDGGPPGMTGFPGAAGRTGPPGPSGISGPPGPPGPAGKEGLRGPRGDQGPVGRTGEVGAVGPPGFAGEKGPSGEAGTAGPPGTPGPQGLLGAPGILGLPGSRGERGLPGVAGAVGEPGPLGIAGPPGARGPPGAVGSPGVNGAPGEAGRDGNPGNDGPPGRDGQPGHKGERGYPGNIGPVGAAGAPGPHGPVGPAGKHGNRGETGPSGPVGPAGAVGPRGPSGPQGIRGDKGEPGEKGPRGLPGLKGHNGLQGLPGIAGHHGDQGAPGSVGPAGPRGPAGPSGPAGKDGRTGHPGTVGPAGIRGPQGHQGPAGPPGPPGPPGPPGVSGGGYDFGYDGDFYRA
- Test Description: dried collagen assay
Bridge positions count the residues as written; N and C are the ends. Square brackets hold non-standard residues; d marks the D form. Primed or numbered codes have the meaning given here. Side chains are listed from the residue outwards. Ends that are not written are not given here. Bip = N[C@@H](Cc1ccc(-c2ccccc2)cc1)C(=O)O; 1Nal = N[C@@H](Cc1cccc2ccccc12)C(=O)O; Dab = NCC[C@H](N)C(=O)O; Gd^T″ = GdDTPA-thiourea
Could you label it Fulfilled if measured % bound is 70% or higher, and Not fulfilled otherwise?

Binder	Qualitative Label
{Gd^T″}-GQWHCTTRFPHHYCLYGK(Gd^T″) (disulfide 5-14 (inferred); not fully specified (C-terminus)) [Compound ID 807]	Not fulfilled
{Gd^T″}-GQWHCTTRFPHH[1Nal]CLYG (disulfide 5-14) [Compound ID 867]	Not fulfilled
{Gd^T″}-GK([Gly-Gd^T″])WHCYT[Dab](Gd^T″)FPHHYCVY[Bip] (disulfide 5-14) [Compound ID 1005]	Fulfilled
{Gd^T″}-GK([Gly-Gd^T″])WHCTTK(Gd^T″)FPHHYCLY[Bip] (disulfide 5-14; not fully specified (C-terminus), also called Comp ID No:800) [Compound ID 800]	Fulfilled
